Reference source: ChEMBL document CHEMBL3988442

Target: Sialic acid-binding Ig-like lectin 9 (Homo sapiens)
Assay: Hs-Siglec9 ALPHAscreen SOP 20170721
Parameters: scale not given: direction of the effect not stated beside the values
Conditions: 10 µM
Can you tell me Percent Effect for the items I'm about to list?
Numbers only, in %.

Compound: CCc1n[nH]c(C2CN(CCc3ccncc3)CCO2)n1 (configuration not stated)
Property measured: Percent Effect
Value: 7.24

Compound: O=C(c1nc(COc2ccc3c(c2)OCO3)no1)N1CCCC1
Property measured: Percent Effect
Value: 4.46

Return reported Percent Effect values for all items listed beneath this line.
1. CC(=O)N1CCC2(CC1)COCCN2Cc1ccc(F)cc1
2. CC(=O)c1ccc(OCC(=O)NC(C)CCc2ccco2)cc1 (configuration not stated)
3. O=C(NCC1CC1)[C@H]1C[C@@H]2CN(S(=O)(=O)Cc3ccccc3)C[C@H]1O2
4. CC(=O)N1CCCN(c2nccc(-c3cn(C)nc3C)n2)CC1
5. NC(=O)CCN1CCC(C(=O)c2cc(F)ccc2F)CC1
6. Cc1ccc(C(=O)N2CCN(Cc3nc(C(C)C)no3)CC2)c(=O)[nH]1

Completion:
1: -8.39; 2: -3.5; 3: -8.26; 4: 25.5; 5: -1.51; 6: 5.72

Field: Percent Effect. Fill in for each record below.
1. CNC(=O)CCNC(=O)c1cccc(Cn2nc(C)cc2C)c1
2. Cc1cnn(C2CN(CC(=O)Nc3cccnc3)C2)c1
3. CCn1c(CN2CCN(CC(N)=O)CC2)nc2c(F)cccc21

Completion:
1: 2.11; 2: -2.24; 3: 6.21

Prompt: Form field - read-out: Percent Effect; system: Sialic acid-binding Ig-like lectin 9 (Homo sapiens); submitted item: Cc1nc(CN(C)C2CCN(Cc3ccno3)C2)no1 (configuration not stated)
Completion: -23.7
